- Test system: protein tyrosylphosphorylation in X3 human lymphoblastoma cells
- assayInfo: Immunoblot / densitometry of X3 cell lysate phosphotyrosyl proteins
- Assay type: cell-based
- settings: Homo sapiens, densitometry of immunoblot, 16 hours, read-out: EC50, 33 kDalton protein tyrosylphosphorylation
testReadout: EC50 (nM)
Give the number; nM is assumed, so skip it.

Measured EC50, Clc1cc2c(cc1Cl)Oc1cc(Cl)c(Cl)cc1O2 : 0.04

---

- Tested on: total cell lysate protein tyrosylphosphorylation in X3 human lymphoblastoma cells
- assayInfo: ELISA with antiphosphotyrosine monoclonal antibody, X3 cell lysate
- Type: cell-based
- settings: Homo sapiens, 16 hours
testReadout: EC50

Record summary for Clc1cc2c(cc1Cl)Oc1cc(Cl)c(Cl)cc1O2 : reported EC50 = 0.13 nM
